In this section, each of the sequences is paired with its reported soluble fraction (log2).
- method.summary: soluble fraction after stress (log2 fold change); higher = more stays soluble; pooled small domains, quantitative proteomics;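 further: 20 min heating vs room temperature control held 20 min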
- run.parameters: stress: 75 degC
Answer with a bare number; do not write a unit.

> print(dat)
                            record.sequence             test.readout  observed.value
1  HMHTDDDGITEAFPHLRLLSLGEDILDLLEKSRFIRKLNNELVYYVVDFREQNSIDGRRYHPSIYHNL  soluble fraction (log2)          -0.437
2  HMRMSRSARLFDLLHILRSHRRAVSGQALAQQLGISIRTLYRDIASLQAQGAKIEGEPGVGYMLKP  soluble fraction (log2)           -1.82
3  HMKTPIEFGSVYNDPVRYVIGMSIKSAESINQAIYDMMKIFGDENNMNKFDSLPDEQAVLDMVNSF  soluble fraction (log2)          0.0725

# ---- query sequence ----
Measured soluble fraction (log2), `HMEQYYVFFAGGMTIGTKEWYESILPENIATSYDDILEGKMMPASLEQIEFYNSHKDYDLYHLFYML` : -4.25
